Test system: corn
assay name: Test A postemergence
Format: in vivo, Zea mays
run conditions: 500 g ai/ha, postemergence, 10 days, visual injury, 0 to 100 scale (0 no effect, 100 complete control)
Description: […]
value kind: Plant response rating, Corn
Keep the answer to the number alone.

Some solved entries appear below for comparison.
>  <molecule>
CC(C)Oc1ccc(-n2cnc(C(C)C)n2)cc1C(=O)N1C[C@H](C)Oc2c(Cl)cccc21

>  <Plant response rating, Corn>
60

$$$$
>  <molecule>
C[C@H]1CN(C(=O)c2cccc(-n3cnc(C(C)(C)C)n3)c2)c2cccc(Cl)c2O1

>  <Plant response rating, Corn>
70

$$$$
>  <molecule>
Cc1cccc2c1OC(C(F)(F)F)CN2C(=O)c1ccnc(-n2cncn2)c1 (stereo not shown)

>  <Plant response rating, Corn>
70

$$$$

In the following, a different molecule is considered.
What value of measured Plant response rating, Corn is listed for C=CCOc1ccc(-n2cnc(C(C)C)n2)cc1C(=O)N1C[C@H](C)Oc2c(Cl)cccc21 ?
50

----------
System: sedge, umbrella
assay name: Test D flooded paddy test
Assay type: in vivo, Cyperus difformis
run conditions: 250 g ai/ha, applied to paddy water, visual rating after 13 to 14 days, scale 0 to 100 (0 no effect, 100 complete control)
# key: entry, value: Plant response rating, Sedge, Umbrella (Flood)
Keep the answer to the number alone.

>  <compound>
CCc1ncn(-c2cc3c(c(C(=O)N4C[C@H](C)Oc5c(Cl)cccc54)c2)OCCO3)n1

>  <measured result>
98

$$$$
>  <compound>
CCc1ncn(-c2cc(C(=O)N3CC(C(F)(F)F)Oc4c(C)cccc43)ccn2)n1 (stereo not shown)

>  <measured result>
45

$$$$

What value of measured Plant response rating, Sedge, Umbrella (Flood) is listed for COc1ccc(-n2cnc(C3CCC3)n2)cc1C(=O)N1C[C@H](C)Oc2c(Cl)cccc21 ?
70

What value of measured Plant response rating, Sedge, Umbrella (Flood) is listed for CCOC[C@H]1CN(C(=O)c2cc(-n3cnc(C(C)C)n3)cc3c2OCO3)c2cccc(Cl)c2O1 ?
40

What value of measured Plant response rating, Sedge, Umbrella (Flood) is listed for CC(C)(C)c1ncn(-c2cc(C(=O)N3CC(C(F)(F)F)Oc4c(Cl)cccc43)ccn2)n1 (stereo not shown) ?
0

What value of measured Plant response rating, Sedge, Umbrella (Flood) is listed for Cc1cccc2c1O[C@@H](C)CN2C(=O)c1cccc(-n2cnc(-c3ccccc3)n2)c1 ?
0

What value of measured Plant response rating, Sedge, Umbrella (Flood) is listed for Cc1ccc(-n2cnc(C#N)n2)cc1C(=O)N1C[C@H](C)Oc2c(Cl)cccc21 ?
0

What value of measured Plant response rating, Sedge, Umbrella (Flood) is listed for Cc1ccc(-n2cnc(C(C)C)n2)cc1C(=O)N1C[C@H](C)Oc2c(F)cccc21 ?
98

What value of measured Plant response rating, Sedge, Umbrella (Flood) is listed for COc1cc(C(=O)N2C[C@H](C)Oc3c(Cl)cccc32)cc(-n2cnc(C)n2)c1 ?
100

What value of measured Plant response rating, Sedge, Umbrella (Flood) is listed for CCc1cc(C(=O)N2C[C@H](C)Oc3c(Cl)cccc32)cc(-n2cncn2)c1 ?
0

What value of measured Plant response rating, Sedge, Umbrella (Flood) is listed for CCc1ncn(-c2cccc(C(=O)N3CC(C(F)(F)F)Oc4c(Cl)cccc43)c2)n1 (stereo not shown) ?
60

What value of measured Plant response rating, Sedge, Umbrella (Flood) is listed for Cc1ccc(-n2cnc(C3(C)COC3)n2)cc1C(=O)N1C[C@H](C)Oc2c(Cl)cccc21 ?
95

What value of measured Plant response rating, Sedge, Umbrella (Flood) is listed for CCOc1ncn(-c2cccc(C(=O)N3C[C@H](C)Oc4c(Cl)cccc43)c2)n1 ?
0

What value of measured Plant response rating, Sedge, Umbrella (Flood) is listed for C[C@H]1CN(C(=O)c2cccc(-n3cnc(OS(C)(=O)=O)n3)c2)c2cccc(Cl)c2O1 ?
0

What value of measured Plant response rating, Sedge, Umbrella (Flood) is listed for Cc1ccc(-n2cnc(CC3CC3)n2)cc1C(=O)N1C[C@H](C)Oc2c(Cl)cccc21 ?
40

What value of measured Plant response rating, Sedge, Umbrella (Flood) is listed for CCOC[C@H]1CN(C(=O)c2cc(-n3cnc(C(C)C)n3)cc3c2OCCO3)c2cccc(Cl)c2O1 ?
0

What value of measured Plant response rating, Sedge, Umbrella (Flood) is listed for Cc1cccc2c1O[C@@H](C)CN2C(=O)c1cccc(-n2cnc(N)n2)c1 ?
0

----------
Tested on: foxtail, giant
assay name: Test A postemergence
Format: in vivo, Setaria faberi
run conditions: 1000 g ai/ha, Postemergence; 0 to 100 scale
Label scheme for Plant response rating, Foxtail, Giant: lower than 20 is Criterion not met, 20 and above is Criterion met.

>  <molecule>
CC1CN(C(=O)c2cccc(-n3cncn3)c2)c2cc(F)ccc2O1 (centres unmarked) [Compound 24]

>  <label value>
Criterion met

$$$$
>  <molecule>
C#Cc1cccc2c1OC(C)CN2C(=O)c1cccc(-n2cncn2)c1 (centres unmarked) [Compound 30]

>  <label value>
Criterion met

$$$$
>  <molecule>
Cc1ccc(-n2cncn2)cc1C(=O)N1CC(C)Oc2c(Cl)cccc21 (centres unmarked) [Compound 33]

>  <label value>
Criterion met

$$$$

Now take the following molecule into account.
Kindly determine if Plant response rating, Foxtail, Giant recorded for CCC1CN(C(=O)c2ccnc(-n3cncn3)c2)c2cccc(I)c2O1 (centres unmarked) [Compound 17] is above or exactly 20.
Criterion not met

----------
Tested on: kochia
assay name: Test C preemergence
Type: in vivo, Bassia scoparia
run conditions: Preemergence, 500 g ai/ha; visual rating after 10 days, 0 to 100 scale (0 no effect, 100 complete control)
value kind: Plant response rating, Kochia
Keep the answer to the number alone.

Some solved entries appear below for comparison.
>  <molecule>
Cc1cccc2c1O[C@@H](C)CN2C(=O)c1cccc(-n2cnc(C#N)c2)c1 [Compound 233]

>  <Plant response rating, Kochia>
0

$$$$
>  <molecule>
COc1cc(C(=O)N2C[C@H](C)Oc3c(Cl)cccc32)cc(-n2cnc(C(C)(C)C)n2)c1 [Compound 213]

>  <Plant response rating, Kochia>
100

$$$$

What value of measured Plant response rating, Kochia is listed for CC(C)c1ncn(-c2cc3c(c(C(=O)N4C[C@H](C)Oc5c(Cl)cccc54)c2)OCO3)n1 [Compound 258] ?
100

What value of measured Plant response rating, Kochia is listed for CCc1ncn(-c2cc3c(c(C(=O)N4C[C@H](C)Oc5c(Cl)cccc54)c2)OCCO3)n1 [Compound 155] ?
90

What value of measured Plant response rating, Kochia is listed for Cc1cn(-c2cccc(C(=O)N3C[C@H](C)Oc4c(C)cccc43)c2)cn1 [Compound 232] ?
0

What value of measured Plant response rating, Kochia is listed for Cc1c(F)cc(-n2cnc(C(C)C)n2)cc1C(=O)N1C[C@H](C)Oc2c(Cl)cccc21 [Compound 151] ?
100

What value of measured Plant response rating, Kochia is listed for COc1c(C)cc(-n2cnc(C(C)C)n2)cc1C(=O)N1C[C@H](C)Oc2c(Cl)cccc21 [Compound 260] ?
80

What value of measured Plant response rating, Kochia is listed for CCc1c(F)cc(-n2cnc(C(C)C)n2)cc1C(=O)N1C[C@H](C)Oc2c(Cl)cccc21 [Compound 152] ?
90

----------
Tested on: ragweed
assay name: Test C postemergence
Assay type: in vivo, Ambrosia artemisiifolia
run conditions: 500 g ai/ha, postemergence, 10 days, 0 to 100 scale (0 no effect, 100 complete control)
value kind: Plant response rating, Ragweed
Keep the answer to the number alone.

Some solved entries appear below for comparison.
>  <compound>
CC(C)c1ncn(-c2cccc(C(=O)N3CC(C(F)(F)F)Oc4c(Cl)cccc43)c2)n1 (single isomer, unassigned)

>  <Plant response rating, Ragweed>
70

$$$$
>  <compound>
CCOC[C@H]1CN(C(=O)c2cc(-n3cnc(C(C)C)n3)ccc2OC)c2cccc(Cl)c2O1

>  <Plant response rating, Ragweed>
90

$$$$
>  <compound>
CCOC[C@H]1CN(C(=O)c2cc(-n3cnc(C(C)C)n3)ccc2C)c2cccc(Cl)c2O1

>  <Plant response rating, Ragweed>
80

$$$$

Lab note: need Plant response rating, Ragweed with ragweed for entry CCOCC1CN(C(=O)c2cc(-n3cnc(CC)n3)ccc2OC)c2cccc(Cl)c2O1 (stereo not shown) , please look it up.
90

----------
System: soybean
assay name: Test C postemergence
Type: in vivo, Glycine max
run conditions: Postemergence, 125 g ai/ha; 0 to 100 scale (0 no effect, 100 complete control), 10 days
# key: entry, value: Plant response rating, Soybean

Some solved entries appear below for comparison.
>  <compound>
CCOC[C@H]1CN(C(=O)c2cc(-n3cnc(CC)n3)ccc2C)c2cccc(Cl)c2O1 [Compound 412]

>  <measured result>
100

$$$$
>  <compound>
COC[C@H]1CN(C(=O)c2cc(-n3cnc(C(C)C)n3)ccc2OC)c2cccc(Cl)c2O1 [Compound 314]

>  <measured result>
100

$$$$

Lab note: need Plant response rating, Soybean with soybean for entry CCc1ncn(-c2cc(C(=O)N3CC(C(F)(F)F)Oc4c(Cl)cccc43)ccn2)n1 (racemic) [Compound 334] , please look it up.
100

Lab note: need Plant response rating, Soybean with soybean for entry Cc1ccc(-n2cnc(C(C)(C)C)n2)cc1C(=O)N1CC(C(F)(F)F)Oc2c(Cl)cccc21 (centres unmarked) [Compound 350] , please look it up.
100

Lab note: need Plant response rating, Soybean with soybean for entry CC(C)c1ncn(-c2ccc([S+](C)[O-])c(C(=O)N3C[C@H](C)Oc4c(Cl)cccc43)c2)n1 (some centres unmarked) [Compound 394] , please look it up.
100

Lab note: need Plant response rating, Soybean with soybean for entry Cc1ncc(-c2cccc(C(=O)N3C[C@H](C)Oc4c(Cl)cccc43)c2)o1 [Compound 352] , please look it up.
80

Lab note: need Plant response rating, Soybean with soybean for entry CCOC[C@H]1CN(C(=O)c2cc(-n3cnc(C(C)C)n3)cc3c2OCO3)c2cccc(Cl)c2O1 [40 0] , please look it up.
20

Lab note: need Plant response rating, Soybean with soybean for entry CCc1ncn(-c2cc(C(=O)N3CC(C(F)(F)F)Oc4c(C)cccc43)ccn2)n1 (centres unmarked) [Compound 318] , please look it up.
100
